# System: 874868-142-R-J2-PDC complex spheroids, growth % test/control
# Protocol description: Anticancer human tumor 874868-142-R-J2-PDC patient-derived head and neck squamous carcinoma cell line growth inhibition [CLK]
# Study conditions: second compound 0.0316 µM; first compound 1 µM; stronger effect = lower value

{"Molecule": "C=C(F)C(=O)N1CCN(c2nc(OCC3CCCN3C)nc3c2CCN(c2cccc4cccc(Cl)c24)C3)CC1CC#N (stereo not drawn) + CNC(=O)c1ccc(Nc2nc(OC3CCCC3)c3c(-c4ccc5nc(C)oc5c4)c[nH]c3n2)c(OC)c1", "viability, T/C, %": 68.4}
{"Molecule": "COc1cccc2c1C(=O)c1c(O)c3c(c(O)c1C2=O)CC(O)(C(=O)CO)CC3OC1CC(N)C(O)C(C)O1 (stereo not drawn) + CN1CCN(c2cc(C(=O)Nc3cc4cc(-c5cnn(C)c5)ccc4cn3)ccn2)CC1", "viability, T/C, %": 1.26}
{"Molecule": "CC(Nc1ccc2c(c1)OCCn1cc(N3C(=O)OCC3C(F)F)nc1-2)C(N)=O (stereo not drawn) + CN1CCN(c2cc(C(=O)Nc3cc4cc(-c5cnn(C)c5)ccc4cn3)ccn2)CC1", "viability, T/C, %": 22.6}

###

# System: 874868-142-R-J2-PDC complex spheroids, growth % test/control
# Protocol description: Anticancer human tumor 874868-142-R-J2-PDC cell line growth inhibition [CLK];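 note: spheroids exposed to the compounds for 7 days; 100% = DMSO vehicle control viability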
# Study conditions: second compound 0.316 µM; first compound 10 µM; stronger effect = lower value
# From the text: A high-throughput screen of multi-cell type tumor spheroids was designed to identify active combinations of […] and targeted small molecules. Complex spheroids include a stromal component modeled by human endothelial cells (HUVEC) and fibroblasts modeled by human mesenchymal stem cells (MSCs). […] Compounds. […] If the clinical Cmax for an agent had not been determined, the highest concentration tested was 10 microM. […]
Experimental endpoint: viability, T/C (%)

{"Compound": "C=C(F)C(=O)N1CCN(c2nc(OCC3CCCN3C)nc3c2CCN(c2cccc4cccc(Cl)c24)C3)CC1CC#N (stereo not given) + CN1CCN(c2cc(C(=O)Nc3cc4cc(-c5cnn(C)c5)ccc4cn3)ccn2)CC1", "Recorded result": 0.16}
{"Compound": "O=c1[nH]cc(F)c(=O)[nH]1 + CNC(=O)c1ccc(Nc2nc(OC3CCCC3)c3c(-c4ccc5nc(C)oc5c4)c[nH]c3n2)c(OC)c1", "Recorded result": 39.2}
{"Compound": "COc1cccc2c1C(=O)c1c(O)c3c(c(O)c1C2=O)CC(O)(C(=O)CO)CC3OC1CC(N)C(O)C(C)O1 (stereo not given) + CNC(=O)c1ccc(Nc2nc(OC3CCCC3)c3c(-c4ccc5nc(C)oc5c4)c[nH]c3n2)c(OC)c1", "Recorded result": 6.83}
{"Compound": "CC1COCCN1c1cc(C2(S(C)(=N)=O)CC2)nc(-c2ccnc3[nH]ccc23)n1 (stereo not given) + CN1CCN(c2cc(C(=O)Nc3cc4cc(-c5cnn(C)c5)ccc4cn3)ccn2)CC1", "Recorded result": 7.51}
{"Compound": "COC1C=CCC(C)C(C)S(=O)(=O)NC(=O)c2ccc3c(c2)N(CC2CCC21)CC1(CCCc2cc(Cl)ccc21)CO3 (stereo not given) + CN1CCN(c2cc(C(=O)Nc3cc4cc(-c5cnn(C)c5)ccc4cn3)ccn2)CC1", "Recorded result": 5.99}

###

# System: 874868-142-R-J2-PDC complex spheroids, growth % test/control
# Protocol description: Anticancer human tumor 874868-142-R-J2-PDC cell line growth inhibition [CLK];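 note: spheroids exposed to the compounds for 7 days; 100% = DMSO vehicle control viability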
# Study conditions: second compound 10 µM; first compound 0.3 µM; stronger effect = lower value
# From the text: A high-throughput screen of multi-cell type tumor spheroids was designed to identify active combinations of […] and targeted small molecules. Complex spheroids include a stromal component modeled by human endothelial cells (HUVEC) and fibroblasts modeled by human mesenchymal stem cells (MSCs). […] Compounds. […] If the clinical Cmax for an agent had not been determined, the highest concentration tested was 10 microM. […]

{"Molecule": "C=CC(=O)Nc1cc(Nc2nccc(-c3cn(C)c4ccccc34)n2)c(OC)cc1N(C)CCN(C)C + CN1CCN(c2cc(C(=O)Nc3cc4cc(-c5cnn(C)c5)ccc4cn3)ccn2)CC1", "Unit name": "%", "viability, T/C": 2.16}
{"Molecule": "C=CC(=O)Nc1cc(Nc2nccc(-c3cn(C)c4ccccc34)n2)c(OC)cc1N(C)CCN(C)C + CNC(=O)c1ccc(Nc2nc(OC3CCCC3)c3c(-c4ccc5nc(C)oc5c4)c[nH]c3n2)c(OC)c1", "Unit name": "%", "viability, T/C": 18.3}
{"Molecule": "NC(=O)C(=Cn1cnc(-c2cc(C(F)(F)F)cc(C(F)(F)F)c2)n1)c1cncnc1 + CNC(=O)c1ccc(Nc2nc(OC3CCCC3)c3c(-c4ccc5nc(C)oc5c4)c[nH]c3n2)c(OC)c1", "Unit name": "%", "viability, T/C": 1.02}
{"Molecule": "NC(=O)C(=Cn1cnc(-c2cc(C(F)(F)F)cc(C(F)(F)F)c2)n1)c1cncnc1 + CN1CCN(c2cc(C(=O)Nc3cc4cc(-c5cnn(C)c5)ccc4cn3)ccn2)CC1", "Unit name": "%", "viability, T/C": 0.17}
{"Molecule": "CC(C)CC(NC(=O)C(Cc1ccccc1)NC(=O)c1cnccn1)B(O)O (stereo unspecified) + CNC(=O)c1ccc(Nc2nc(OC3CCCC3)c3c(-c4ccc5nc(C)oc5c4)c[nH]c3n2)c(OC)c1", "Unit name": "%", "viability, T/C": 6.49}
{"Molecule": "CC(C)CC(NC(=O)C(Cc1ccccc1)NC(=O)c1cnccn1)B(O)O (stereo unspecified) + CN1CCN(c2cc(C(=O)Nc3cc4cc(-c5cnn(C)c5)ccc4cn3)ccn2)CC1", "Unit name": "%", "viability, T/C": 0.22}
